# experimental.system: recombinant eIF4E (Homo sapiens (Human), UniProt P06730)
# Sequence (P06730 whole entry): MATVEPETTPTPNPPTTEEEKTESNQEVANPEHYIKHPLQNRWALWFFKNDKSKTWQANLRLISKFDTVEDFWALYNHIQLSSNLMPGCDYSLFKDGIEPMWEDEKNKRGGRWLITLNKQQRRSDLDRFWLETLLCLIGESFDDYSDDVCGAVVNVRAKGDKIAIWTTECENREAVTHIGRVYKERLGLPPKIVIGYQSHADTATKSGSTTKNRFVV
# method.summary: Fluorescence polarization competition assay for eIF4E binding potency
# experimental.context: fluorescence polarization competition, 75 nM recombinant eIF4E, 20 nM EDA-m7GDP-ATTO-550; IC50 class; read-out: elF4E FP
pIC50: −log10 of the molar value.
Parameter: pIC50. Scope: all listed entries.

Ask: Indicate the recorded pIC50 value for this compound: Cc1cc(-c2cc(Cl)ccc2C#CCn2c(C)nc3cc(C(F)(F)F)c(CN4CCN(C)CC4)c(C#N)c3c2=O)c2scc(C(=O)O)c2n1 [compound 616]
Result: > 7.30

Ask: # return recorded pIC50 for input Cc1nc2cc(C(F)(F)F)c(F)c(C#N)c2c(=O)n1CCOc1ccc(Cl)cc1-c1ccnc2c(C(=O)O)csc12 [compound 246]
Result: > 7.30

Ask: Please indicate pIC50 recorded for CCc1cc(-c2cc(Cl)ccc2OCCn2c(C)nc3cc(C(F)(F)F)c(CN4CCN(C)CC4)c(C#N)c3c2=O)c2scc(C(=O)O)c2n1 [compound 637]
Result: > 7.30

Ask: Provide pIC50 value for the following compound: Cc1cc(-c2cc(Cl)ccc2OCCn2c(C)nc3ccc(N4CCN(C)CC4)cc3c2=O)c2scc(C(=O)O)c2n1 [compound 811]
Result: 6.00 to 7.30

Ask: Give the reported value of pIC50 for this record: Cc1cc(-c2cc(Cl)ccc2OCCn2c(C)nc3cc(Cl)c(N4CCC(F)(F)CC4)c(C#N)c3c2=O)c2scc(C(=O)O)c2n1 [compound 919]
Result: > 7.30

Ask: Answer with the recorded pIC50 for the compound listed here: CC#Cc1nc2c(=O)n(CCOc3ccc(Cl)cc3-c3cc(C)nc4c(C(=O)O)csc34)c(C)nc2cc1C(F)(F)F [compound 784]
Result: > 7.30
